Molecular target: T1, rabbit serum albumin (rabbit, UniProt P49065 25-608, biotin)
T1 chain: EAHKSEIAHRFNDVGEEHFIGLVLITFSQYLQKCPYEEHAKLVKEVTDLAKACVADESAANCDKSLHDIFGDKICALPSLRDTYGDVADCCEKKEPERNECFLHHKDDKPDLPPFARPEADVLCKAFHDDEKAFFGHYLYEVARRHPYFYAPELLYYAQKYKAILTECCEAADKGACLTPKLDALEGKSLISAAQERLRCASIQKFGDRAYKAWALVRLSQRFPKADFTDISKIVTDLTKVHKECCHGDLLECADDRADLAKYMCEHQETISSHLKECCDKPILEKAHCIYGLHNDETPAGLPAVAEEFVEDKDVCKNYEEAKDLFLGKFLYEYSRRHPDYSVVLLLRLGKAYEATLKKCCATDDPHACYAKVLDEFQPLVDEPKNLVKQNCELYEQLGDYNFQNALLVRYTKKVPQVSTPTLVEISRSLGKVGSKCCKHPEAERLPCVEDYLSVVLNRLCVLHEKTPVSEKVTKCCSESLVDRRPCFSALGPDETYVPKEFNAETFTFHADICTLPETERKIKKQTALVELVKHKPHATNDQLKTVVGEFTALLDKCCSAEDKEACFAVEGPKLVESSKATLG
Experiment: SPR
quantityKind: pKd
Numbers only, as −log10 of the molar value.

[ask] Could you share which pKd value was measured for RLIEDICLPRWGCLWEDD [SA21] ?
[reply] 7.00
